# test_target: T1, human BR3 extracellular domain (human, UniProt Q96RJ3 1-61)
# T1 construct: biotinylated where used as tracer; also called hBR3-ECD; BR3-ECD
# protocol_summary: phage competition ELISA
Kindly supply the reported pIC50 values for the records listed here.
One number for each entry, as −log10 of the molar value.

- binder: "V3-46s-45 phage clone (Fab, V domains shown) VH: EVQLVESGGGLVQPGGSLRLSCAASGFTISSSSIHWVRQAPGKGLEWVAWVLPSVGFTDYADSVKGRFTISADTSKNTAYLQMNSLRAEDTAVYYCARRVCYNRLGVCAGGMDYWGQGTLVTVSS VL: DIQMTQSPSSLSASVGDRVTITCRASEDVSSAVAWYQQKPGKAPKLLIFAASYLFSGVPSRFSGSGSGTDFTLTISSLQPEDFATYYCQHSQVSPPTFGQGTKVEIK"
  pIC50: 9.92
- binder: "V3-46s-33 phage clone (Fab, V domains shown) VH: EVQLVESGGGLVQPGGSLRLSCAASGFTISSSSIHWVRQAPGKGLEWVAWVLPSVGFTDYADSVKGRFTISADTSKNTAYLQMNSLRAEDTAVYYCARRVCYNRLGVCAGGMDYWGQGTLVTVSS VL: DIQMTQSPSSLSASVGDRVTITCRASEEISTAVAWYQQKPGKAPKLLIFSASYLYSGVPSRFSGSGSGTDFTLTISSLQPEDFATYYCQQSEVSPPTFGQGTKVEIK"
  pIC50: 10.00

Turning now to a further record.
Q: Would you kindly share the measured pIC50 for V3-46s-12 phage clone (Fab, V domains shown, differs from V3-46s in CDR-H1 as well) VH: EVQLVESGGGLVQPGGSLRLSCAASGFTIASSSIHWVRQAPGKGLEWVAWVLPSVGFTDYADSVKGRFTISADTSKNTAYLQMNSLRAEDTAVYYCARRVCYNRLGVCAGGMDYWGQGTLVTVSS VL: DIQMTQSPSSLSASVGDRVTITCRASEDISSAVAWYQQKPGKAPKLLIFAASFLYSGVPSRFSGSGSGTDFTLTISSLQPEDFATYYCQQSQISPPTFGQGTKVEIK ?
A: 10.28
